tested on: Klebsiella pneumoniae; experiment: Antibacterial activity against extended-spectrum beta-lactamase producing Klebsiella pneumoniae 700603 after 18 hrs by agar dilution method; type: functional; conditions: Klebsiella pneumoniae, 700603, 18 h
Bridge positions count the residues as written; N and C are the ends. Square brackets hold non-standard residues; d marks the D form. Peptide text beside a SMILES is read from it. * marks the point of attachment. Heptanoyl(6-Me) = CC(C)CCCCC(=O)*; Nonanoyl = CCCCCCCCC(=O)*; X1 = CC[C@H](C)CCCCC(=O)*; Heptanoyl = CCCCCCC(=O)*; Octanoyl = CCCCCCCC(=O)*; Dab = NCC[C@H](N)C(=O)O; Nva = CCC[C@H](N)C(=O)O
READOUT_NAME: MIC

INSERT INTO measurements (molecule, assayed_target, observed_measurement) VALUES
  ('CCCCCCC(=O)N[C@@H](CCN)C(=O)N[C@H](C(=O)N[C@@H](CCN)C(=O)N[C@H]1CCNC(=O)[C@H]([C@@H](C)O)NC(=O)[C@H](CCN)NC(=O)[C@H](CCN)NC(=O)[C@H](CC(C)C)NC(=O)[C@@H](CC(C)C)NC(=O)[C@H](CCN)NC1=O)[C@@H](C)O (Heptanoyl-[Dab]T[Dab][Dab][Dab][dL]L[Dab][Dab]T; lactam 4-C)', 'Klebsiella pneumoniae', '0.5 µg/mL'),
  ('CCCCCCC(=O)N[C@@H](CCN)C(=O)N[C@H](C(=O)N[C@@H](CCN)C(=O)N[C@H]1CCNC(=O)[C@H]([C@@H](C)O)NC(=O)[C@H](CCN)NC(=O)[C@H](CCN)NC(=O)[C@H](CC(C)C)NC(=O)[C@@H](Cc2ccccc2)NC(=O)[C@H](CCN)NC1=O)[C@@H](C)O [POLYMYXIN B4] (Heptanoyl-[Dab]T[Dab][Dab][Dab][dF]L[Dab][Dab]T; lactam 4-C)', 'Klebsiella pneumoniae', '1 µg/mL'),
  ('CC(C)CCCCC(=O)N[C@@H](CCN)C(=O)N[C@H](C(=O)N[C@@H](CCN)C(=O)N[C@H]1CCNC(=O)[C@H]([C@@H](C)O)NC(=O)[C@H](CCN)NC(=O)[C@H](CCN)NC(=O)[C@H](C(C)C)NC(=O)[C@@H](CC(C)C)NC(=O)[C@H](CCN)NC1=O)[C@@H](C)O ({Heptanoyl(6-Me)}-[Dab]T[Dab][Dab][Dab][dL]V[Dab][Dab]T; lactam 4-C)', 'Klebsiella pneumoniae', '0.5 µg/mL'),
  ('CC[C@H](C)CCCCC(=O)N[C@@H](CCN)C(=O)N[C@H](C(=O)N[C@@H](CCN)C(=O)N[C@H]1CCNC(=O)[C@H]([C@@H](C)O)NC(=O)[C@H](CCN)NC(=O)[C@H](CCN)NC(=O)[C@H]([C@@H](C)CC)NC(=O)[C@@H](CC(C)C)NC(=O)[C@H](CCN)NC1=O)[C@@H](C)O', 'Klebsiella pneumoniae', '1 µg/mL'),
  ('CCCCCCCCC(=O)N[C@@H](CCN)C(=O)N[C@H](C(=O)N[C@@H](CCN)C(=O)N[C@H]1CCNC(=O)[C@H]([C@@H](C)O)NC(=O)[C@H](CCN)NC(=O)[C@H](CCN)NC(=O)[C@H](CC(C)C)NC(=O)[C@@H](Cc2ccccc2)NC(=O)[C@H](CCN)NC1=O)[C@@H](C)O [POLYMYXIN B5] (Nonanoyl-[Dab]T[Dab][Dab][Dab][dF]L[Dab][Dab]T; lactam 4-C)', 'Klebsiella pneumoniae', '2 µg/mL'),
  ('CC(C)CCCCC(=O)N[C@@H](CCN)C(=O)N[C@H](C(=O)N[C@H](CO)C(=O)N[C@H]1CCNC(=O)[C@H]([C@@H](C)O)NC(=O)[C@H](CCN)NC(=O)[C@H](CCN)NC(=O)[C@H]([C@@H](C)O)NC(=O)[C@@H](Cc2ccccc2)NC(=O)[C@H](CCN)NC1=O)[C@@H](C)O ({Heptanoyl(6-Me)}-[Dab]T[dS][Dab][Dab][dF]T[Dab][Dab]T; lactam 4-C)', 'Klebsiella pneumoniae', '0.5 µg/mL'),
  ('CCC[C@@H]1NC(=O)[C@@H](CC(C)C)NC(=O)[C@H](CCN)NC(=O)[C@@H](NC(=O)[C@H](CCN)NC(=O)[C@@H](NC(=O)[C@H](CCN)NC(=O)CCCCC(C)C)[C@@H](C)O)CCNC(=O)[C@H]([C@@H](C)O)NC(=O)[C@H](CCN)NC(=O)[C@H](CCN)NC1=O ({Heptanoyl(6-Me)}-[Dab]T[Dab][Dab][Dab][dL][Nva][Dab][Dab]T; lactam 4-C)', 'Klebsiella pneumoniae', '0.5 µg/mL'),
  ('CC(C)CCCCC(=O)N[C@@H](CCN)C(=O)N[C@H](C(=O)N[C@@H](CCN)C(=O)N[C@H]1CCNC(=O)[C@H]([C@@H](C)O)NC(=O)[C@H](CCN)NC(=O)[C@H](CCN)NC(=O)[C@H]([C@@H](C)O)NC(=O)[C@@H](CC(C)C)NC(=O)[C@H](CCN)NC1=O)[C@@H](C)O', 'Klebsiella pneumoniae', '0.5 µg/mL'),
  ('CCCCCCCC(=O)N[C@@H](CCN)C(=O)N[C@H](C(=O)N[C@@H](CCN)C(=O)N[C@H]1CCNC(=O)[C@H]([C@@H](C)O)NC(=O)[C@H](CCN)NC(=O)[C@H](CCN)NC(=O)[C@H](CC(C)C)NC(=O)[C@@H](Cc2ccccc2)NC(=O)[C@H](CCN)NC1=O)[C@@H](C)O (Octanoyl-[Dab]T[Dab][Dab][Dab][dF]L[Dab][Dab]T; lactam 4-C)', 'Klebsiella pneumoniae', '1 µg/mL'),
  ('CC[C@H](C)CCCCC(=O)N[C@@H](CCN)C(=O)N[C@H](C(=O)N[C@@H](CCN)C(=O)N[C@H]1CCNC(=O)[C@H]([C@@H](C)O)NC(=O)[C@H](CCN)NC(=O)[C@H](CCN)NC(=O)[C@H](CC(C)C)NC(=O)[C@@H](Cc2ccccc2)NC(=O)[C@H](CCN)NC1=O)[C@@H](C)O (X1-[Dab]T[Dab][Dab][Dab][dF]L[Dab][Dab]T; lactam 4-C)', 'Klebsiella pneumoniae', '2 µg/mL'),
  ('CC(C)CCCCC(=O)N[C@@H](CCN)C(=O)N[C@H](C(=O)N[C@H](CO)C(=O)N[C@H]1CCNC(=O)[C@H]([C@@H](C)O)NC(=O)[C@H](CCN)NC(=O)[C@H](CCN)NC(=O)[C@H]([C@@H](C)O)NC(=O)[C@@H](CC(C)C)NC(=O)[C@H](CCN)NC1=O)[C@@H](C)O ({Heptanoyl(6-Me)}-[Dab]T[dS][Dab][Dab][dL]T[Dab][Dab]T; lactam 4-C)', 'Klebsiella pneumoniae', '0.5 µg/mL');

* * *

// values below are reported MIC
tested on: Pseudomonas aeruginosa; test: Antibacterial activity against Pseudomonas aeruginosa ATCC 27853 after 18 hrs by agar dilution method; assay type: functional; settings: ATCC 27853, 18 h
Bridge positions count the residues as written; N and C are the ends. Square brackets hold non-standard residues; d marks the D form. Peptide text beside a SMILES is read from it. * marks the point of attachment. Heptanoyl(6-Me) = CC(C)CCCCC(=O)*; Dab = NCC[C@H](N)C(=O)O
READOUT_NAME: MIC (µg/mL)

INSERT INTO assay_data (compound, readout_name, unit_symbol, observed_measurement) VALUES
  ('CC(C)CCCCC(=O)N[C@@H](CCN)C(=O)N[C@H](C(=O)N[C@@H](CCN)C(=O)N[C@H]1CCNC(=O)[C@H]([C@@H](C)O)NC(=O)[C@H](CCN)NC(=O)[C@H](CCN)NC(=O)[C@H]([C@@H](C)O)NC(=O)[C@@H](CC(C)C)NC(=O)[C@H](CCN)NC1=O)[C@@H](C)O', 'MIC', 'µg/mL', 0.5),
  ('CC(C)CCCCC(=O)N[C@@H](CCN)C(=O)N[C@H](C(=O)N[C@@H](CCN)C(=O)N[C@H]1CCNC(=O)[C@H]([C@@H](C)O)NC(=O)[C@H](CCN)NC(=O)[C@H](CCN)NC(=O)[C@H](C(C)C)NC(=O)[C@@H](CC(C)C)NC(=O)[C@H](CCN)NC1=O)[C@@H](C)O ({Heptanoyl(6-Me)}-[Dab]T[Dab][Dab][Dab][dL]V[Dab][Dab]T; lactam 4-C)', 'MIC', 'µg/mL', 2);

* * *

test: Cytotoxicity against African green monkey Vero cells after 72 hrs by MTT assay; format: cell-based; conditions: chlorocebus sabaeus, Vero cells
Bridge positions count the residues as written; N and C are the ends. Square brackets hold non-standard residues; d marks the D form. Peptide text beside a SMILES is read from it. * marks the point of attachment. X1 = CC[C@H](C)CCCCC(=O)*; Heptanoyl = CCCCCCC(=O)*; Dab = NCC[C@H](N)C(=O)O
// values below are reported CC50 at 72 h
READOUT_NAME: CC50 at 72 h (µg/mL)

INSERT INTO measurements (compound, observed_measurement) VALUES
  ('CC[C@H](C)CCCCC(=O)N[C@@H](CCN)C(=O)N[C@H](C(=O)N[C@@H](CCN)C(=O)N[C@H]1CCNC(=O)[C@H]([C@@H](C)O)NC(=O)[C@H](CCN)NC(=O)[C@H](CCN)NC(=O)[C@H]([C@@H](C)O)NC(=O)[C@@H](CC(C)C)NC(=O)[C@H](CCN)NC1=O)[C@@H](C)O (X1-[Dab]T[Dab][Dab][Dab][dL]T[Dab][Dab]T; lactam 4-C)', 96),
  ('CC(C)CCCCC(=O)N[C@@H](CCN)C(=O)N[C@H](C(=O)N[C@@H](CCN)C(=O)N[C@H]1CCNC(=O)[C@H]([C@@H](C)O)NC(=O)[C@H](CCN)NC(=O)[C@H](CCN)NC(=O)[C@H]([C@@H](C)O)NC(=O)[C@@H](CC(C)C)NC(=O)[C@H](CCN)NC1=O)[C@@H](C)O', 276),
  ('CC[C@H](C)CCCCC(=O)N[C@@H](CCN)C(=O)N[C@H](C(=O)N[C@@H](CCN)C(=O)N[C@H]1CCNC(=O)[C@H]([C@@H](C)O)NC(=O)[C@H](CCN)NC(=O)[C@H](CCN)NC(=O)[C@H]([C@@H](C)CC)NC(=O)[C@@H](CC(C)C)NC(=O)[C@H](CCN)NC1=O)[C@@H](C)O', 176),
  ('CC[C@H](C)CCCCC(=O)N[C@@H](CCN)C(=O)N[C@H](C(=O)N[C@H](CO)C(=O)N[C@H]1CCNC(=O)[C@H]([C@@H](C)O)NC(=O)[C@H](CCN)NC(=O)[C@H](CCN)NC(=O)[C@H]([C@@H](C)O)NC(=O)[C@@H](Cc2ccccc2)NC(=O)[C@H](CCN)NC1=O)[C@@H](C)O', 160),
  ('CCCCCCC(=O)N[C@@H](CCN)C(=O)N[C@H](C(=O)N[C@@H](CCN)C(=O)N[C@H]1CCNC(=O)[C@H]([C@@H](C)O)NC(=O)[C@H](CCN)NC(=O)[C@H](CCN)NC(=O)[C@H](CC(C)C)NC(=O)[C@@H](CC(C)C)NC(=O)[C@H](CCN)NC1=O)[C@@H](C)O (Heptanoyl-[Dab]T[Dab][Dab][Dab][dL]L[Dab][Dab]T; lactam 4-C)', 216);
